B1: TPR t1 (parent)
chain: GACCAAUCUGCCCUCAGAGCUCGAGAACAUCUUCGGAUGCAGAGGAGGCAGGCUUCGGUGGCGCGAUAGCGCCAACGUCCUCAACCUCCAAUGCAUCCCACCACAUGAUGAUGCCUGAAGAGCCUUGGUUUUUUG

variants of: B1; assay: polymerase ribozyme fitness, log enrichment relative to wild type (log ratio); higher = more active; in vitro selection for triplet polymerase activity
Kindly supply the reported polymerase ribozyme fitness (log ratio) values for the records listed here.

// solved cases for polymerase ribozyme fitness (log ratio) follow
seqText | polymerase ribozyme fitness (log ratio)
GACCAAUCUGCCCUCAGAGCUCGAGAACAUCUUCGGAUACAGAGGAGGUAGGCUUCGGUGGCGCGAUAGCGCCAACGCCCUCAACCUCCAAUGCAUCCCACCACAUGAUGAUGCCUGAAGAGCCUUGGUUUUUUG [G39A C49U U78C] | -1.72
GACCAAUCUGCCCUCAGAGCUCGAGAACAUCUUCGGAUGCAGAGGAGGCAGGCUUCGGUGGCGCGAUAGCGCCAACGUCCUCAAGCUCCAAUGCAUCCCACCACAUGAUGAUGCCUGUAGAGCCUGGGUUUUUUG [C85G A118U U126G] | -3.39
GACCAAUCUGCCCUCAGAGCUCGAGAACAUCUUCGGAUGCAUAGGAGGCAGGCUUCGGUGGCGCGAUAGCGCCAACGUCCUCAACCUACAAAGCAUCCCACCACAUGAUGAUGCCUGAAAAGCCUUGGUUUUUUG [G42U C88A U92A G120A] | -1.96
GACCAAUCUGCCCUCAGAGCUCGAGAACAUCUUCGGAUGCAGAGGAGGCAGGCUUCGGUGGCGCGAUAGCGCCAACGUCCUCAACAUCCAAUGCGUCCCACCACAUGAUGAUGCCUGAAGAGCCUUGGUUUUUUG [C86A A95G] | -0.915
GACCAAUCUGGCCUCAGAGCUCGAGAACAUCUUCGGAUGCAGAGGAGGCAGGCUUCGGUGGCGCGAUAGCGCCAACGUCCUGAACCUCCAAUGCAUCCCACCACAUGAUGAUGCCUCAAGAGCCUUGGUUUUUUG [C11G C82G G117C] | -2.58

# batch: return polymerase ribozyme fitness (log ratio) for each of the 8 variants below
1. GACCAAUCUGUCCUCAGAGCUCGAGAACAUCUUCGGAUGCAGAGGAGGCAGGCUUCGGUGGCGCGAUAGCGCCAACGUCCUCAACCUCCAAUGCAUCCCACCACAUGAUGAUGCUUGAAGAGCCUUGGUUUUUUG [C11U C115U]
2. GACCAAUCUGCCCUCAGAGCUCGAGAACAUCUUCGGAUGCAGAGGAGGCAUGGUUCGGUGGCGCGAUAGCGCCAACGUCCUCAACCUCCAAUGCAUCCCACCACAUGAUGAUGCCUGAAGAGCAUUGGUUUUAGG [G51U C53G C124A U133A U134G]
3. GACCAAUCCGCACUCAGAGCUCGAGAACAUCUUCGGAUGCAGAGGAGGCAGGCUUCGGUGGCGCGAUAGCGCCAACGUCCUCAACAUCCAAUGCAUCCCACAAUAUGAUGAUGCCUGAAGAGCAUUGGUUUUUUG [U9C C12A C86A C102A C104U C124A]
4. GACCAAUCUGCCCUCAGAGCUCGAGAACAUCUUCGGAUGCAGAGGCGGCAGGCUUAGGUGGCGCGAUAUCGCCAACGUCCUCAACCUCCAAUGCAUCCCACCACAUGAUGAUGCCUGAAGAGCCUUGGUUUUUUG [A46C C56A G69U]
5. GACCAAUCUGCCAUCAGAGCUCGAGAACAUCUUCGGAUGCAGAGGAGGCAGGCUUCGGUGGCGCGAUAGCGCCAACGACCUCAACCUCCAAUGCAUCCCACCACAUGAUGAUGCCUGAAGAGCCUUGGUUUUUUG [C13A U78A]
6. GACCAAUCUGCCCUCAGAGCUCGAGAACAUCUUCGGAUGCAGAGGAGGCAGGCUUUGGUGGCGCGAUAGCGCCAACGUCCUCAACCUCCAAUGCAUCCCACCACAUGAUGAUGCCUGAAGAGCCAUGGUUUUUUG [C56U U125A]
7. GACCAAUCUGCCCUCAGAGCUCGAGAACAUCUUCGGAUGCAGAGGAGGCAGGCUUCGGUGGCGCGAUAGCGCCAACGUCCUGAACCUCCUAUGCAUCCCACCACAUGAUGAUGCCUGAAGAGCCUUGGUUUUUUG [C82G A90U]
8. GACCAAUCUGCCCUCAGAGCUCGAGAACAUCUUCGGAUGCAGAGGAGGCACGCUUAGGUGGCGCGAUAGCGCCAACUACCUCAACCUCCAAUGCAUCCCACCACAUGAUGAUGCCUGAAGAGCCUUGGUUUUUUG [G51C C56A G77U U78A]

[-1.61, -1.64, -0.301, -1.31, -2.18, -0.748, -2.11, -3.51]

# batch: return polymerase ribozyme fitness (log ratio) for each of the 2 variants below
1. GACCAAUCUGCCUUCAGAGCUCGAGAACAUCUUCGGCUGCAGAGGAGGCAGGGUUCGGUGGCGCGAUAGCGCCAACGUCCUCAACCUCCAAUGCAUCCCACCACAUGAUGAUGCCUGAAGAGCCUUGCUUUUUUG [C13U A37C C53G G128C]
2. GACCAAUCUGCACUCAGAACUGGAGACCAACUUCGGAUGAAGAGGCGGCAGGCUUAGGUGGCGCGAUAGCGCCAACGUCCUAAACCUCCAAGGCAUCCCACCACAUGAGGAUGCCUGAAGAGCCUUGGUUUUUUG [C12A G19A C22G A27C U30A C40A A46C C56A C82A U92G U109G]

1: -1.48; 2: -8.5
